# Tested on: Escherichia coli TOP10;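 further: peptides expressed intracellularly from a pBAD plasmid library in pooled LB shake-flask culture, induced with 0.3% L-arabinose, DNA abundance read by NGS, three biological replicates, DESeq2 with apeglm shrinkage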
# procedure_details: shrunken log2 fold change of peptide-encoding DNA abundance (4.5 h post-induction vs induction); higher = less antimicrobial activity (less host growth inhibition)
# applied_conditions: time post-induction: 4.5 h; library: site-saturation at positions 5, 18, 19, 20
Classify as follows. Reported shrunken log2 fold change greater than or equal to -0.04: label 1. Reported shrunken log2 fold change below: label 0.

{"seq": "RRIRVRPPRLPRPRPRPHNCPRP", "assay_target": "Escherichia coli TOP10", "class": "label 1"}
{"seq": "RRIRTRPPRLPRPRPRPCNNPRP", "assay_target": "Escherichia coli TOP10", "class": "label 0"}
{"seq": "RRIRWRPPRLPRPRPRPFTWPRP", "assay_target": "Escherichia coli TOP10", "class": "label 0"}
{"seq": "RRIRKRPPRLPRPRPRPFYPPRP", "assay_target": "Escherichia coli TOP10", "class": "label 0"}
{"seq": "RRIRGRPPRLPRPRPRPTQMPRP", "assay_target": "Escherichia coli TOP10", "class": "label 1"}
{"seq": "RRIRNRPPRLPRPRPRPGEYPRP", "assay_target": "Escherichia coli TOP10", "class": "label 1"}
{"seq": "RRIRHRPPRLPRPRPRPWSFPRP", "assay_target": "Escherichia coli TOP10", "class": "label 1"}
{"seq": "RRIRGRPPRLPRPRPRPSYWPRP", "assay_target": "Escherichia coli TOP10", "class": "label 1"}
{"seq": "RRIRYRPPRLPRPRPRPLYQPRP", "assay_target": "Escherichia coli TOP10", "class": "label 0"}

These measurements were taken from the supplement of paper PMC9112550.
